System: Mycobacterium tuberculosis
TEST METHOD NOTES: Cornell - Phenotypic assay to identify agents that inhibit growth of Mycobacterium tuberculosis
Assay type: functional
Set-up: scale not given: direction of the effect not stated beside the values
RECORDED CONDITIONS: 10 mM as filed; unlikely as a test dose
Among all 53,000 compounds or so, about 900 (1.7%) showed an effect of 50% or more. What follows is part of a selection rich in strong results, with near analogues and random picks from the rest.
QUANTITY NAME: Percent Effect (%)
Write the number in % without appending the unit.

Observe how each entry below is paired with its result.
Query Cc1csc(C(Cc2ccsc2)NC(=O)CN(C)Cc2cccnc2)n1.Cl (stereo unspecified) yields Percent Effect of 14.48

Query c1ccc(-n2ncc(CN3CCCC(Cn4cncn4)C3)n2)cc1 (stereo unspecified) yields Percent Effect of 2.145

Query Cn1ncc2c1CCCN(C(=O)C1CCCC1)C2 yields Percent Effect of 10.97

Query OCCOc1cc(F)ccc1NCc1ccc(F)c(F)c1 yields Percent Effect of 11.25

Query Cc1ncc2c(n1)CCCC2NC(=O)c1ccc(Cn2cccn2)cc1 (stereo unspecified) yields Percent Effect of -3.537

Please examine the following record next.
Query O=C(NCCc1csc(-c2cccnc2)n1)c1cnn2c1CCCC2 yields Percent Effect of -3.716

====

// Percent Effect lookup, one value per entry
Test system: Mycobacterium tuberculosis
TEST METHOD NOTES: Cornell - Phenotypic assay to identify agents that inhibit growth of Mycobacterium tuberculosis
Format: functional
Parameters: scale not given: direction of the effect not stated beside the values
RECORDED CONDITIONS: 10 mM as filed; unlikely as a test dose
Out of some 53,000 compounds screened, about 900 (1.7%) showed an effect of 50% or more. This excerpt belongs to a sample that is enriched for strong results.
Write the number in % without appending the unit.

Query CN1CCCCCC1C(=O)NCCCn1ncc2ccccc21 (configuration not stated) yields Percent Effect of 28.62

Query Cc1oncc1C(=O)N1CCC2(CC1)CC(N1CCOCC1)C2.O=C(O)C(F)(F)F yields Percent Effect of 14.16

Query COc1cccc(CNCc2ccccc2Cl)c1O yields Percent Effect of -0.8125

====

Tested on: Mycobacterium tuberculosis
TEST METHOD NOTES: Cornell - Phenotypic assay to identify agents that inhibit growth of Mycobacterium tuberculosis
Assay type: functional
Design: scale not given: direction of the effect not stated beside the values
RECORDED CONDITIONS: 10 mM as filed; unlikely as a test dose
In all, about 53,000 compounds went through this assay and about 900 (1.7%) showed an effect of 50% or more. Only a selection was taken, and strong results are over-represented in it overall.
With a cut-off of 30%, any Percent Effect strictly below it is called fulfilled; any Percent Effect meeting it or above is called not fulfilled.

Worked cases, answers included:
Task: For this compound, is Percent Effect lower than 30%? c1ccc(-c2cccc(N3CCC(NCCc4cscn4)CC3)c2)cc1
Output: not fulfilled

Task: For this compound, is Percent Effect lower than 30%? O=C(O)C1(Oc2ccc3ccccc3c2)CCN(c2ncccn2)CC1
Output: fulfilled

Task: For this compound, is Percent Effect lower than 30%? COc1ccccc1OCCN(C)c1cc(C)nc(N)n1
Output: fulfilled

Task: For this compound, is Percent Effect lower than 30%? CC(=O)N1CCc2c(nc(N(C)C)nc2N(C)CCC2CCCCO2)C1 (stereo not drawn)
Output: fulfilled

Task: For this compound, is Percent Effect lower than 30%? O=C(O)c1cc(/C=C/c2ccccc2)ncn1
Output: not fulfilled

Task: For this compound, is Percent Effect lower than 30%? CCc1c(O)nc(SCC(=O)c2ccccc2)n(-c2ccccc2)c1=O
Output: fulfilled

More entries:
Task: For this compound, is Percent Effect lower than 30%? N#Cc1nccnc1N1CCC(CSc2ccccc2)C1 (stereo not drawn)
Output: not fulfilled

Task: For this compound, is Percent Effect lower than 30%? N#Cc1ccc(C(=O)O)nc1/C=C/c1cccc(Cl)c1
Output: fulfilled

Task: For this compound, is Percent Effect lower than 30%? CN(C)C(=O)c1ccc2ccc(N3CCN(CC4CC4)CC3)n2c1
Output: fulfilled

Task: For this compound, is Percent Effect lower than 30%? CNC(=O)[C@@H]1CN(C(=O)CCOC)C[C@H]1c1ccnc(N2CCCC2)n1.Cl
Output: not fulfilled

====

System: Mycobacterium tuberculosis
TEST METHOD NOTES: Cornell - Phenotypic assay to identify agents that inhibit growth of Mycobacterium tuberculosis
Type: functional
Parameters: scale not given: direction of the effect not stated beside the values
RECORDED CONDITIONS: 10 mM as filed; unlikely as a test dose
Among all 53,000 compounds or so, about 900 (1.7%) showed an effect of 50% or more. The sample holds strong results, similar compounds and a random draw of the others, so the mix is not that of the screen.
QUANTITY NAME: Percent Effect (%)
Write the number in % without appending the unit.

Query CC(=O)N1CCC(c2nc(C)cc(-c3ccccc3C(=O)O)n2)CC1 yields Percent Effect of -42.06

Query COc1cc(C(=O)Nc2c(C)noc2C)ccc1C yields Percent Effect of 19.94

Query Cc1cccc2c1C(=O)NC1(CCOCC1)N2 yields Percent Effect of 17.55

Please examine the following record next.
Query Cc1ccc(CC2CCCN2CC(=O)NCc2cccnc2)cc1 (centres undefined) yields Percent Effect of 13.39

====

// Percent Effect lookup, one value per entry
System: Mycobacterium tuberculosis
TEST METHOD NOTES: Cornell - Phenotypic assay to identify agents that inhibit growth of Mycobacterium tuberculosis
Assay type: functional
Parameters: scale not given: direction of the effect not stated beside the values
RECORDED CONDITIONS: 10 mM as filed; unlikely as a test dose
Out of some 53,000 compounds screened, about 900 (1.7%) showed an effect of 50% or more. Many of the other results were omitted from the sample, so strong results are more common in it than they were.
Write the number in % without appending the unit.

Query Cc1noc(NC(=O)c2ccc(Br)cc2)n1 yields Percent Effect of 106.9

Query Cc1cnc(C(=O)N2CCCC3(CCN(c4cnn(C)c4)C3=O)C2)cn1 (centres undefined) yields Percent Effect of -8.899

Query O=C(Nc1nc(-c2ccccc2)ns1)N1CCC(F)CC1 yields Percent Effect of 13.41

Query CC(=O)N1CCCC1c1cccc(Oc2ccccc2F)n1 (centres undefined) yields Percent Effect of 16.34

Query CC(C)N(C(=O)Cn1c(-c2ccco2)cc2cccnc21)C(C)C.Cl yields Percent Effect of 99.58

Query O=C(O)C1CCCN1c1nc(-c2ccc(Cl)cc2)cc(C(F)(F)F)n1 (centres undefined) yields Percent Effect of 38.69

Query O[C@@H]1CN(c2nc3ccccc3s2)CC[C@H]1c1ccc2c(c1)OCO2 yields Percent Effect of 18.1

Query Cc1cc(NC(=O)C2CCN(c3nnc(C)c(C)c3C#N)CC2)no1 yields Percent Effect of -12.4

Query CC(C)Sc1ccc(C(C)Nc2nc3c(cnn3C)c(=O)[nH]2)cc1 (centres undefined) yields Percent Effect of 64.6

Query CCC(C)NC(=O)Cn1ccc2sc(C)cc2c1=O (centres undefined) yields Percent Effect of 17.39

Query COCCNC(=O)Cn1c(-c2ccco2)cc2cccnc21 yields Percent Effect of 49.86

Query Cl.NC(Cc1nc(-c2ccccc2)no1)c1ccccc1 (centres undefined) yields Percent Effect of 19.6

====

Tested on: Mycobacterium tuberculosis
TEST METHOD NOTES: Cornell - Phenotypic assay to identify agents that inhibit growth of Mycobacterium tuberculosis
Format: functional
Set-up: scale not given: direction of the effect not stated beside the values
RECORDED CONDITIONS: 10 mM as filed; unlikely as a test dose
The whole screen tested about 53,000 compounds, of which about 900 (1.7%) showed an effect of 50% or more. The list comes from a sample in which strong results are over-represented; it also holds close analogues and randomly drawn compounds.
QUANTITY NAME: Percent Effect (%)
Write the number in % without appending the unit.

Observe how each entry below is paired with its result.
Param item: O=C(CSC1CCc2ccccc2NC1=O)NC1CC1 (centres undefined) ; param system: Mycobacterium tuberculosis; output Percent Effect: -0.1015

Param item: Cc1cc2ccccc2n1CCC(=O)N1CCCC2(CC1)CNC(=O)O2 (centres undefined) ; param system: Mycobacterium tuberculosis; output Percent Effect: -6.951

Param item: O=C(O)C(F)(F)F.O=C(O)C(F)(F)F.c1cc(CN2C[C@@H]3OCCN(CC4CC4)[C@@H]3C2)n[nH]1 ; param system: Mycobacterium tuberculosis; output Percent Effect: 4.885

Param item: COc1ccc(Oc2ccc(C(F)(F)F)cn2)cc1CN1CCCC1 ; param system: Mycobacterium tuberculosis; output Percent Effect: 50.99

Param item: Cc1cccc(CN2CCC(Cc3ccccc3F)CC2)n1 ; param system: Mycobacterium tuberculosis; output Percent Effect: 56.1

Param item: CC1(CNC(=O)NCc2ccsc2)CCCS1 (centres undefined) ; param system: Mycobacterium tuberculosis; output Percent Effect: 1.003

Param item: Cc1nc(NCC2CCOCC2)cc(C2CCN2S(C)(=O)=O)n1 (centres undefined) ; param system: Mycobacterium tuberculosis; output Percent Effect: 10.58

Param item: CCc1cc(C(=O)N2CCC3(CCCN(CC4CC4)C3=O)C2)cs1 (centres undefined) ; param system: Mycobacterium tuberculosis; output Percent Effect: 1.27

Param item: Cn1nc(Br)c2c(NCCNc3ncccn3)ncnc21 ; param system: Mycobacterium tuberculosis; output Percent Effect: 7.21

Param item: Cc1cc2ccccc2n1CCC(=O)N1CCCCC1CCO (centres undefined) ; param system: Mycobacterium tuberculosis; output Percent Effect: 105.9

More entries:
Param item: COc1ccc(Br)c(NC(=O)NCc2ncnn2C)c1 ; param system: Mycobacterium tuberculosis; output Percent Effect: -5.732

Param item: O=C(CCCOc1ccccc1)N1CCCC1Cn1cccn1 (centres undefined) ; param system: Mycobacterium tuberculosis; output Percent Effect: -5.631
